target: PRKAA2 (human) (UniProt P54646); assay: Caliper, Mobility shift assay off-chip; conditions: compound 0.2 µM
Sequence (P54646 whole entry, looked up): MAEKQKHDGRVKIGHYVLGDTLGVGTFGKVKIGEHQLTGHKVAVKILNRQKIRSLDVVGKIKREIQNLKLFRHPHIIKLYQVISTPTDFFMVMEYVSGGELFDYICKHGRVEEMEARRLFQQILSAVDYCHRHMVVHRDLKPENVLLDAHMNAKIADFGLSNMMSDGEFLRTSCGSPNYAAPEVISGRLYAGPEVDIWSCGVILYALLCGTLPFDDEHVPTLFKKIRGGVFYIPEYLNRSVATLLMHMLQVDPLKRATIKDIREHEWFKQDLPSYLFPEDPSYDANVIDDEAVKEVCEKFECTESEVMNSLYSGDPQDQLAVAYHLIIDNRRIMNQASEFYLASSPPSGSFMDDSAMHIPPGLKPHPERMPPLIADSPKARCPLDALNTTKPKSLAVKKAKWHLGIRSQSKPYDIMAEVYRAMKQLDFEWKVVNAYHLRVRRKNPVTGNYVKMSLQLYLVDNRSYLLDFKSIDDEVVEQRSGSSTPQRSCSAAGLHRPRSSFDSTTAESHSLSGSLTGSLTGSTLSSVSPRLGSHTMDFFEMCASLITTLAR
measured.parameter: inhibition (%)

compound.structure.string: Cc1ccc(Nc2nccc(N(C)c3ccc4c(C)n(C)nc4c3)n2)cc1S(N)(=O)=O
unit.descriptor: %
numeric.value: -6.6

1 = CNC(=O)c1cc(Oc2ccc(NC(=O)Nc3ccc(Cl)c(C(F)(F)F)c3)cc2)ccn1
2 = COc1cc2c(Oc3ccc4[nH]c(C)cc4c3F)ncnc2cc1OCCCN1CCCC1
3 = CCN(CC)CCNC(=O)c1c(C)[nH]c(/C=C2\C(=O)Nc3ccc(F)cc32)c1C
input: Arrange by inhibition, high to low. Response field: labels, in requested order.
output: 3, 1, 2
(3: 82.6%, 1: 10.4%, 2: 6%)

---

biological target: MAP3K12 (human); assay: ELISA; conditions: compound 0.02 µM
measured.parameter: inhibition (%)

# count of solved cases: 2
compound.structure.string: Cc1ccc(Nc2nccc(N(C)c3ccc4c(C)n(C)nc4c3)n2)cc1S(N)(=O)=O
inhibition, %: 8.5

compound.structure.string: CNC(=O)c1cc(Oc2ccc(NC(=O)Nc3ccc(Cl)c(C(F)(F)F)c3)cc2)ccn1
inhibition, %: 4.1

P = COc1cc2c(Oc3ccc4[nH]c(C)cc4c3F)ncnc2cc1OCCCN1CCCC1
Q = CNC(=O)c1ccccc1Sc1ccc2c(/C=C/c3ccccn3)n[nH]c2c1
input: Please let me know which one, P or Q , has a lower measured inhibition value. Answer with the label corresponding to your selection.
output: Q
(Q: 4.3%, P: 8.9%)

---

target: MAP2K3 (human); assay: ELISA; details: compound 0.02 µM
measured.parameter: inhibition (%)

a = COc1cc2c(Oc3ccc4[nH]c(C)cc4c3F)ncnc2cc1OCCCN1CCCC1
b = CNC(=O)c1ccccc1Sc1ccc2c(/C=C/c3ccccn3)n[nH]c2c1
c = CNC(=O)c1cc(Oc2ccc(NC(=O)Nc3ccc(Cl)c(C(F)(F)F)c3)cc2)ccn1
d = Cc1ccc(Nc2nccc(N(C)c3ccc4c(C)n(C)nc4c3)n2)cc1S(N)(=O)=O
input: Sort the listed entries by inhibition, smallest first. Write out the labels following the order that was asked for.
output: a, d, b, c
(a: -7.4%, d: -3.4%, b: -2.2%, c: 9.8%)

---

target: STK3 (human); experiment: Caliper, Mobility shift assay off-chip; settings: compound 0.2 µM
measured.parameter: inhibition (%)

a = CNC(=O)c1cc(Oc2ccc(NC(=O)Nc3ccc(Cl)c(C(F)(F)F)c3)cc2)ccn1
b = COc1cc2c(Oc3ccc4[nH]c(C)cc4c3F)ncnc2cc1OCCCN1CCCC1
c = CCN(CC)CCNC(=O)c1c(C)[nH]c(/C=C2\C(=O)Nc3ccc(F)cc32)c1C
input: Arrange items by their inhibition values in increasing order. Put the labels in the requested order and write them down.
output: b, a, c
(b: -3%, a: -1.9%, c: 51.4%)

---

molecular target: TYRO3 (human); test: Caliper, Mobility shift assay off-chip; conditions: compound 0.2 µM
measured.parameter: inhibition (%)

1 = COc1cc2c(Oc3ccc4[nH]c(C)cc4c3F)ncnc2cc1OCCCN1CCCC1
2 = Cc1ccc(Nc2nccc(N(C)c3ccc4c(C)n(C)nc4c3)n2)cc1S(N)(=O)=O
3 = CNC(=O)c1cc(Oc2ccc(NC(=O)Nc3ccc(Cl)c(C(F)(F)F)c3)cc2)ccn1
4 = CCN(CC)CCNC(=O)c1c(C)[nH]c(/C=C2\C(=O)Nc3ccc(F)cc32)c1C
input: Could you please order the items by inhibition, going from the lowest number to the highest? Answer with the labels in sequence, matching the requested order.
output: 3, 2, 1, 4
